- Target or system: yeast Gal4-DNA binding domain fused to the ligand binding domain of human RORγ (Homo sapiens)
- Construct: host or cells: HEK293t
- Sequence (P51449 269-508 limits assumed): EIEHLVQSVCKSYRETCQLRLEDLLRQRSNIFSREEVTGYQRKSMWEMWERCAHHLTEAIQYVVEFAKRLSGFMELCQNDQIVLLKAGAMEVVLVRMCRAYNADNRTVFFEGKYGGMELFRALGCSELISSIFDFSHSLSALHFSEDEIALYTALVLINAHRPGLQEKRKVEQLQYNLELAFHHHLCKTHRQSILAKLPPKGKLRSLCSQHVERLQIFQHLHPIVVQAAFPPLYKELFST
- Procedure details: RORγ Reporter Assay (Gal4)
- Assay type: cell-based
- Measurement parameters: RORγ Reporter Assay (Gal4) at 0.1 μM; values given as lower bounds of ranges
Listed next: entries and their corresponding Gal4 activity range @ 0.1 μM (% inhibition).
Value kind: Gal4 activity range @ 0.1 μM (% inhibition)

Compound	Observed
Fc1c(NCC2CCOCC2)ncnc1N1CC(F)(F)CC1c1ccc(C(F)(F)F)cc1 (stereo not shown)	>50 % inhibition
NC(=O)Cc1ccc(CNc2ncnc(N3CCCC3c3cccc(Cl)c3)c2F)cc1 (stereo not shown)	>50 % inhibition
O=C(O)Cc1ccc(CNc2ncnc(N3CCOCC3c3ccc(C(F)(F)F)cc3)c2F)cc1 (stereo not shown)	>20 % inhibition
NC(=O)Cc1ccc(Cn2ccc3c(N4CCOCC4c4ccccc4)ncnc32)cc1 (stereo not shown)	>20 % inhibition
CS(=O)(=O)Cc1ccc(CNc2ncnc(N3CCCC3c3ccc(C(F)(F)F)cc3)c2F)cc1 (stereo not shown)	>20 % inhibition
CC1(CNc2ncnc(N3CCC[C@@H]3c3ccc(C(F)(F)F)cc3)c2F)CCOCC1	>20 % inhibition
COc1ccc(CN(C)c2ncnc(N3CCCC3c3ccc(C(F)(F)F)cc3)c2F)cn1 (stereo not shown)	>20 % inhibition
Cc1ccc(COc2ncnc(N3CCCC3c3ccc(C(F)(F)F)c(F)c3)c2F)cn1 (stereo not shown)	>0 % inhibition
COCC1(CNc2ncnc(N3CCC[C@@H]3c3ccc(C(F)(F)F)cc3)c2F)CCC1	>0 % inhibition
OCCC1(CNc2ncnc(N3CCOC[C@@H]3c3ccc(C(F)(F)F)cc3)c2F)CCOCC1	>20 % inhibition
NC(=O)CC1CCC(CNc2ncnc(N3CCOC[C@@H]3c3ccc(C(F)(F)F)cc3)c2F)CC1 (stereo partly shown)	>20 % inhibition
CC(=O)N1CCC(CNc2ncnc(N3CCC[C@@H]3c3ccc(C(F)(F)F)cc3)c2F)CC1	>50 % inhibition
CS(=O)(=O)N1CCC(Cn2ccc3c(N4CCOC[C@@H]4c4ccc(OC(F)(F)F)cc4)ncnc32)CC1	>50 % inhibition
O=C(O)Cc1ccc(CNc2ncnc(N3CCC[C@H]3c3ccc(C(F)(F)F)cc3)c2F)cc1	>0 % inhibition
NS(=O)(=O)c1ccc(CNc2ncnc(N3CCC[C@@H]3c3ccc(C(F)(F)F)cc3)c2F)cc1	>50 % inhibition
Fc1c(NCC2CCOCC2)ncnc1N1CCC[C@@H]1c1ccc(C(F)(F)F)cc1	>50 % inhibition

----------
- Target or system: yeast Gal4-DNA binding domain fused to the ligand binding domain of human RORγ (Homo sapiens, UniProt P51449)
- Construct: host or cells: HEK293t
- Sequence (P51449 269-508 limits assumed): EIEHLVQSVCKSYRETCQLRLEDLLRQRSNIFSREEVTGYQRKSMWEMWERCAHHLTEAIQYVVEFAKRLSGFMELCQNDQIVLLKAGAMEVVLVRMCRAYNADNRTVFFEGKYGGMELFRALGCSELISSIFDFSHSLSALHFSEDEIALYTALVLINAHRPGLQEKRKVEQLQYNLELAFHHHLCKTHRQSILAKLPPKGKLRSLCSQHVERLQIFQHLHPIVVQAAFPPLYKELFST
- Procedure details: RORγ Reporter Assay (Gal4)
- Type: cell-based
- Measurement parameters: RORγ Reporter Assay (Gal4) at 0.1 μM; values given as lower bounds of ranges
Value kind: Gal4 activity range @ 0.1 μM (% inhibition)

Compound	Observed
NC(=O)Cc1ccc(Cn2ccc3c(N4CCOC[C@@H]4c4ccc(C(F)(F)F)cn4)ncnc32)cc1	>80 % inhibition
O=C(O)Cc1ccc(CNc2ncnc(N3CCOCC3c3ccccc3)c2F)cc1 (stereo not shown)	>0 % inhibition
NC(=O)Cc1ccc(CNc2ncnc(N3CCCC3c3ccc(C(F)(F)F)cc3O)c2F)cc1 (stereo not shown)	>80 % inhibition
OCCc1ccc(CNc2ncnc(N3CCCC3c3ccc(C(F)(F)F)cc3)c2F)cc1 (stereo not shown)	>50 % inhibition
COc1nc(C)ccc1CNc1ncnc(N2CCCC2c2ccc(C(F)(F)F)cc2)c1F (stereo not shown)	>20 % inhibition
O=S(=O)(NC1CC1)c1ccc(CNc2ncnc(N3CCOC[C@@H]3c3ccc(C(F)(F)F)cc3)c2F)cc1	>80 % inhibition
OCC1CCC(CNc2ncnc(N3CCC[C@@H]3c3ccc(C(F)(F)F)cc3)c2F)CC1 (stereo partly shown)	>80 % inhibition
CS(=O)(=O)N1CCC(CNc2ncnc(N3CCOC[C@@H]3c3ccc(C(F)(F)F)cc3)c2F)C1 (stereo partly shown)	>20 % inhibition
O=C(O)Cc1ccc(CNc2ncnc(N3CCOCC3c3ccccc3)c2F)s1 (stereo not shown)	>0 % inhibition
Fc1c(NCc2ccncc2)ncnc1N1CCCC1c1ccc(C(F)(F)F)cc1 (stereo not shown)	>20 % inhibition
NC(=O)Cc1ccc(CNc2ncnc(N3CCCC3c3ccc4c(c3)OCO4)c2F)cc1 (stereo not shown)	>0 % inhibition
NC(=O)Cc1ccc(Cn2ccc3c(N4CCOC[C@@H]4c4ccc(OC(F)(F)F)cc4)ncnc32)cc1	>80 % inhibition
N#CC[C@H]1CC[C@H](CNc2ncnc(N3CCOC[C@@H]3c3ccc(C(F)(F)F)cc3)c2F)CC1	>50 % inhibition
O=S(=O)(CC(F)(F)F)N[C@H]1CC[C@H](CNc2ncnc(N3CCOC[C@@H]3c3ccc(OC(F)(F)F)cc3)c2F)CC1	>0 % inhibition
CCc1ccc(C2CCCN2c2ncnc(NCc3ccc(CC(N)=O)cc3)c2F)o1 (stereo not shown)	>20 % inhibition
O=C(O)Cc1ccc(Cn2ccc3c(N4CCC[C@@H]4c4ccc(C(F)(F)F)cc4)ncnc32)cc1	>80 % inhibition

----------
- Target or system: human RORγt (Ligand Binding Domain) (Homo sapiens, UniProt P51449)
- Construct: purchased Crelux (Planegg, Germany) batch no PC5032-1
- Procedure details: Fluorescence Polarization (FP) Assay

Molecule	Target or system	IC50
Oc1cc(CNc2ncnc(N3CCCC3c3ccc(C(F)(F)F)cc3)c2F)on1 (stereo not shown) [Example 216]	human RORγt (Ligand Binding Domain) (Homo sapiens, UniProt P51449)	< 10 µM

----------
Listed next: entries and their corresponding IC50.
- Target or system: human RORγt (Ligand Binding Domain) (Homo sapiens, UniProt P51449)
- Construct: purchased Crelux (Planegg, Germany) batch no PC5032-1
- Procedure details: Fluorescence Polarization (FP) Assay
- Measurement parameters: Fluorescence Polarization (FP) Assay; values given as upper bounds of activity ranges; read-out: FP activity range
Value kind: IC50

Compound	Value kind	Observed
CCc1ccc(CN(C)c2ncnc(N3CCCC3c3ccc(C(F)(F)F)cc3)c2F)nc1 (stereo not shown) [Example 136]	IC50	< 2000 nM
Cc1ccc(CNc2ncnc(N3CCCC3c3ccc(C(F)(F)F)cc3)c2F)cn1 (stereo not shown) [Example 89]	IC50	< 500 nM
O=C(O)c1ccc(CNc2ncnc(N3CCCC3c3ccc(C(F)(F)F)cc3)c2F)cc1 (stereo not shown) [Example 44]	IC50	< 10000 nM
Fc1c(NCC2CCCC2)ncnc1N1CCC[C@@H]1c1ccc(C(F)(F)F)cc1 [Example 218]	IC50	< 10000 nM
NC(=O)C1CCCN(c2ccc(CNc3ncnc(N4CCCC4c4ccc(C(F)(F)F)cc4)c3F)cc2)C1 (stereo not shown) [Example 61]	IC50	< 10000 nM
CN(C)C(=O)C1(CNc2ncnc(N3CCOC[C@@H]3c3ccc(C(F)(F)F)cc3)c2F)CCCC1 [Example 250]	IC50	< 10000 nM
CC(C)(C)C[C@@H](Nc1ncnc(N2CCCC2c2ccc(C(F)(F)F)c(F)c2)c1F)C(N)=O (stereo partly shown) [Example 72]	IC50	< 1000 nM
CS(=O)(=O)CC1(CNc2ncnc(N3CC(F)(F)CC3c3ccc(C(F)(F)F)cc3)c2F)CCOCC1 (stereo not shown) [Example 260]	IC50	< 500 nM
CCC(Nc1ncnc(N2CCCC2c2ccc(C(F)(F)F)cc2)c1F)c1noc(C)n1 (stereo not shown) [Example 215]	IC50	< 10000 nM
Cc1nnc(C2CCCN2c2ncnc(NCc3ccc(CC(N)=O)cc3)c2F)o1 (stereo not shown) [Example 315]	IC50	< 10000 nM
COc1cc(CNc2ncnc(N3CCCC3c3ccc(C(F)(F)F)cc3)c2F)cc(OC)c1 (stereo not shown) [Example 142]	IC50	< 2000 nM
Cc1nn(C)cc1C1CCCN1c1ncnc(NCc2ccc(CC(N)=O)cc2)c1F (stereo not shown) [Example 317]	IC50	< 10000 nM
NC(=O)Cc1ccc(Cn2ccc3c(N4CCOC[C@@H]4c4ccc(OC(F)(F)F)cc4)ncnc32)cc1 [Example 252]	IC50	< 500 nM
Fc1c(NCc2ccccc2)ncnc1N1CCCC1c1ccc(C(F)(F)F)cc1 (stereo not shown) [Example 139]	IC50	< 2000 nM
Fc1c(NCc2ccc(Cn3cncn3)cc2)ncnc1N1CCCC1c1ccc(C(F)(F)F)cc1 (stereo not shown) [Example 115]	IC50	< 500 nM
O=C1CN(c2ccc(CNc3ncnc(N4CCCC4c4ccc(C(F)(F)F)cc4)c3F)cc2)CCN1 (stereo not shown) [Example 60]	IC50	< 2000 nM
NC(=O)Cc1ccc(CNc2ncnc(N3CCCC3c3ccc(O)cc3)c2F)cc1 (stereo not shown) [Example 300]	IC50	< 10000 nM
NC(=O)Cc1ccc(CNc2ncnc(N3CCOCC3c3ccccc3)c2F)s1 (stereo not shown) [Example 283]	IC50	< 1000 nM
CC1(C)CCC(CNc2ncnc(N3CCC[C@@H]3c3ccc(C(F)(F)F)cc3)c2F)CC1 [Example 166]	IC50	< 500 nM
CC(=O)N1CCC(CNc2ncnc(N3CCOC[C@@H]3c3ccc(C(F)(F)F)cc3)c2F)CC1 [Example 233]	IC50	< 500 nM
NC(=O)Cc1ccc(CNc2ncnc(N3C[C@H](F)C[C@@H]3c3ccc(C(F)(F)F)cc3)c2F)cc1 (racemic) [Example 241]	IC50	< 1000 nM
Fc1c(NCc2ccc(Cl)nc2)ncnc1N1CCC[C@@H]1c1ccc(C(F)(F)F)cc1 [Example 183]	IC50	< 500 nM
Fc1c(NCC2CCCOC2)ncnc1N1CCC[C@@H]1c1ccc(C(F)(F)F)cc1 (stereo partly shown) [Example 186]	IC50	< 500 nM
CS(=O)(=O)NC1CCCC1CNc1ncnc(N2CCOC[C@@H]2c2ccc(C(F)(F)F)cc2)c1F (stereo partly shown) [Example 251]	IC50	< 10000 nM
CC1(c2ccc(C(F)(F)F)cc2)CCCN1c1ncnc(NCc2ccc(CC(N)=O)cc2)c1F (stereo not shown) [Example 229]	IC50	< 500 nM
COC(=O)C1(CNc2ncnc(N3CCOCC3c3ccc(C(F)(F)F)cc3)c2F)CCOCC1 (stereo not shown) [Example 254]	IC50	< 500 nM
NC(=O)Cc1ccc(CNc2ncnc(N3CCCC3c3nc4ccccc4s3)c2F)cc1 (stereo not shown) [Example 310]	IC50	< 500 nM
NC(=O)Cc1ccc(CNc2ncnc(N3CCCC3c3cccc(Cl)c3)c2F)cc1 (stereo not shown) [Example 306]	IC50	< 500 nM
COc1cccc(C2CCCN2c2ncnc(NCc3ccc(CC(N)=O)cc3)c2F)c1 (stereo not shown) [Example 304]	IC50	< 500 nM
Cc1ccc(C2CCCN2c2ncnc(NCc3ccc(CC(N)=O)cc3)c2F)cc1 (stereo not shown) [Example 302]	IC50	< 500 nM
Fc1c(NCC2CCOC2)ncnc1N1CCC[C@@H]1c1ccc(C(F)(F)F)cc1 (stereo partly shown) [Example 154]	IC50	< 500 nM
